Cited source: ChEMBL document CHEMBL3414473

Biological target: 3-phosphoinositide-dependent protein kinase 1 (Homo sapiens)
Sequence (O15530 whole entry): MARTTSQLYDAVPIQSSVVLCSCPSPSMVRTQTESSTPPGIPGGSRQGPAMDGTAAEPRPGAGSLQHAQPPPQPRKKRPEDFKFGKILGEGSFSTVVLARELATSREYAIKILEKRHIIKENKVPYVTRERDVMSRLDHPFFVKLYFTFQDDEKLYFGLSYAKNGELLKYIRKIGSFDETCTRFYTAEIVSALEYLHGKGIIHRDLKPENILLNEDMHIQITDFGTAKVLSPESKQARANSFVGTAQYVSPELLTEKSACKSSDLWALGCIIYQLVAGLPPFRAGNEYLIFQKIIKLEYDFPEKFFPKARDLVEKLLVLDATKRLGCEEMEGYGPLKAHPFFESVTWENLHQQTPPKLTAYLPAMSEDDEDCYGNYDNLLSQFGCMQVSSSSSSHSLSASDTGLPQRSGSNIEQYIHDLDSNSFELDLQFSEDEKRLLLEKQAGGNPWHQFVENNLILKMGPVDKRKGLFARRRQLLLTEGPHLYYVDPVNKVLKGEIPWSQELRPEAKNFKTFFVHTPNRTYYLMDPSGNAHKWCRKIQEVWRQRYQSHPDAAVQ
observable: Kd (µM)
Give a bare numeral; the unit µM is implied.

Which Kd is listed for CC(C)CCCC1(C)CCc2cc(S(N)(=O)=O)cc(Br)c2O1 (stereo unspecified) ?
11.1
